System: Fusobacterium varium
Assay: Antibacterial activity against Fusobacterium varium by CLSI agar dilution method
Type: functional
I'd appreciate it if you could supply MIC90 values for the items below.
Respond numerically; units are µg/mL and should not be typed.

Q) Report MIC90 for `C[C@@H](O)[C@H]1C(=O)N2C(C(=O)O)=C(S[C@@H]3CN[C@H](C(=O)N(C)C)C3)[C@H](C)[C@H]12` please.
A) 0.12

Q) `CCN1CCN(C(=O)N[C@@H](C(=O)N[C@@H]2C(=O)N3[C@@H]2SC(C)(C)[C@@H]3C(=O)O)c2ccccc2)C(=O)C1=O` ?
A) 8

Q) Try this molecule next: `C[C@@H](O)[C@H]1C(=O)N2C(C(=O)O)=C(S[C@@H]3CN[C@H](C(=O)Nc4cccc(C(=O)O)c4)C3)[C@H](C)[C@H]12`
A) 0.12

Q) Another molecule: `C[C@@H](O)[C@H]1C(=O)N2C(C(=O)O)=C(S[C@@H]3CN[C@H](CNS(N)(=O)=O)C3)[C@H](C)[C@H]12`
A) 0.25

Reference source for all entries: ChEMBL document CHEMBL1671627
